Test system: A549
Test: Concentration required for growth inhibition of […] was determined
Format: functional, cell-based
Settings: Homo sapiens
RECORDED METRIC: pIC50
Reminder that pIC50 is minus the log10 of a molar concentration.

COMPOUND: Nc1cc(CO)cc(Nc2c3ccccc3nc3ccccc23)c1
MEASUREMENT TARGET: A549
pIC50: 7.33

# pIC50 lookup, item CC[C@]1(O)C[C@@H]2CN(CCc3c([nH]c4ccccc34)[C@@](C(=O)OC)(c3cc4c(cc3OC)N(C)[C@H]3[C@@](O)(C(=O)OC)[C@H](OC(C)=O)[C@]5(CC)C=CCN6CC[C@]43[C@@H]65)C2)C1 [VINBLASTINE] 8.00

# pIC50 lookup, item CC(=O)O[C@H]1C(=O)[C@@]2(C)[C@H]([C@H](OC(=O)c3ccccc3)[C@]3(O)C[C@H](OC(=O)[C@H](O)[C@@H](NC(=O)c4ccccc4)c4ccccc4)C(C)=C1C3(C)C)[C@]1(OC(C)=O)CO[C@@H]1C[C@@H]2O [PACLITAXEL] 8.54

# pIC50 lookup, item OCc1cc(Nc2c3ccccc3nc3ccccc23)cc(OCCN(CCCl)CCCl)c1 8.25
